test-method-notes: Metabolic stability in human liver microsomes assessed as half life at 1 uM in presence of NADPH-regenerating system by LC-MS/MS analysis
Type: ADME, Microsome
Measured half-life at 1 µM accompanies every entry in the list below.
Reply numerically in min, unit not repeated.

Sample records with half-life at 1 µM:
CC1CCC(NC(=O)N(C)c2cnc3ccc(-c4ccc(OCCCN(C)C)nc4)cc3n2)CC1 (stereo not given) : 19
CCCNC(=O)N(C)c1cnc2ccc(-c3ccc(OCCCN(C)C)nc3)cc2n1 : 16
COc1ccc(NC(=O)N(C)c2cnc3ccc(-c4ccc(OCCCN(C)C)nc4)cc3n2)cc1 : 51

Challenge: Request the reported half-life at 1 µM associated with `C=CCNC(=O)N(C)c1cnc2ccc(-c3ccc(OCCCN(C)C)nc3)cc2n1`
Response given: 25

Challenge: Request the reported half-life at 1 µM associated with `CC(C)NC(=O)N(C)c1cnc2ccc(-c3ccc(OCCN(C)C)nc3)cc2n1`
Response given: 46

Challenge: Request the reported half-life at 1 µM associated with `Cc1nc(OCCCN2CCCCC2)ccc1-c1ccc2ncc(N(C)C(=O)NC(C)C)nc2c1`
Response given: 462

Challenge: Request the reported half-life at 1 µM associated with `CN(C)CCCOc1ccc(-c2ccc3ncc(N(C)C(=O)NC4CCCCC4)nc3c2)cn1`
Response given: 15

Challenge: Request the reported half-life at 1 µM associated with `CC(C)NC(=O)N(C)c1cnc2ccc(-c3ccc(OCCCCN(C)C)nc3)cc2n1`
Response given: 35

Challenge: Request the reported half-life at 1 µM associated with `CN(C)CCCOc1ccc(-c2ccc3ncc(N(C)C(=O)NC(C)(C)C)nc3c2)cn1`
Response given: 14

Challenge: Request the reported half-life at 1 µM associated with `CN(C)CCCOc1ccc(-c2ccc3ncc(N(C)C(=O)NC4CCCC4)nc3c2)cn1`
Response given: 22

====

test-method-notes: Cmax in Balb/C mouse at 10 mg/kg,po measured upto 48 hrs by LC-MS/MS analysis
Type: ADME, organism-based
Set-up: dose 10 mg/kg, time < 48 hrs, route po
study-conditions: in vivo
Measured Cmax accompanies every entry in the list below.
Output should be the measured figure followed by the unit it is expressed in.

Challenge: Request the reported Cmax associated with `COCc1ccc(-c2ccc3ncc(C(N)=O)c(N[C@@H](C)C4CCOCC4)c3c2)cn1`
Response given: 1.36 µg/mL

Challenge: Request the reported Cmax associated with `CC(C)NC(=O)N(C)c1cnc2ccc(-c3ccc(OCCCN4CCCCC4)nc3)cc2n1`
Response given: 10.2 µg/mL

====

target-system: Serine/threonine-protein kinase ATR (Homo sapiens, UniProt Q13535)
Sequence (Q13535 whole entry, looked up): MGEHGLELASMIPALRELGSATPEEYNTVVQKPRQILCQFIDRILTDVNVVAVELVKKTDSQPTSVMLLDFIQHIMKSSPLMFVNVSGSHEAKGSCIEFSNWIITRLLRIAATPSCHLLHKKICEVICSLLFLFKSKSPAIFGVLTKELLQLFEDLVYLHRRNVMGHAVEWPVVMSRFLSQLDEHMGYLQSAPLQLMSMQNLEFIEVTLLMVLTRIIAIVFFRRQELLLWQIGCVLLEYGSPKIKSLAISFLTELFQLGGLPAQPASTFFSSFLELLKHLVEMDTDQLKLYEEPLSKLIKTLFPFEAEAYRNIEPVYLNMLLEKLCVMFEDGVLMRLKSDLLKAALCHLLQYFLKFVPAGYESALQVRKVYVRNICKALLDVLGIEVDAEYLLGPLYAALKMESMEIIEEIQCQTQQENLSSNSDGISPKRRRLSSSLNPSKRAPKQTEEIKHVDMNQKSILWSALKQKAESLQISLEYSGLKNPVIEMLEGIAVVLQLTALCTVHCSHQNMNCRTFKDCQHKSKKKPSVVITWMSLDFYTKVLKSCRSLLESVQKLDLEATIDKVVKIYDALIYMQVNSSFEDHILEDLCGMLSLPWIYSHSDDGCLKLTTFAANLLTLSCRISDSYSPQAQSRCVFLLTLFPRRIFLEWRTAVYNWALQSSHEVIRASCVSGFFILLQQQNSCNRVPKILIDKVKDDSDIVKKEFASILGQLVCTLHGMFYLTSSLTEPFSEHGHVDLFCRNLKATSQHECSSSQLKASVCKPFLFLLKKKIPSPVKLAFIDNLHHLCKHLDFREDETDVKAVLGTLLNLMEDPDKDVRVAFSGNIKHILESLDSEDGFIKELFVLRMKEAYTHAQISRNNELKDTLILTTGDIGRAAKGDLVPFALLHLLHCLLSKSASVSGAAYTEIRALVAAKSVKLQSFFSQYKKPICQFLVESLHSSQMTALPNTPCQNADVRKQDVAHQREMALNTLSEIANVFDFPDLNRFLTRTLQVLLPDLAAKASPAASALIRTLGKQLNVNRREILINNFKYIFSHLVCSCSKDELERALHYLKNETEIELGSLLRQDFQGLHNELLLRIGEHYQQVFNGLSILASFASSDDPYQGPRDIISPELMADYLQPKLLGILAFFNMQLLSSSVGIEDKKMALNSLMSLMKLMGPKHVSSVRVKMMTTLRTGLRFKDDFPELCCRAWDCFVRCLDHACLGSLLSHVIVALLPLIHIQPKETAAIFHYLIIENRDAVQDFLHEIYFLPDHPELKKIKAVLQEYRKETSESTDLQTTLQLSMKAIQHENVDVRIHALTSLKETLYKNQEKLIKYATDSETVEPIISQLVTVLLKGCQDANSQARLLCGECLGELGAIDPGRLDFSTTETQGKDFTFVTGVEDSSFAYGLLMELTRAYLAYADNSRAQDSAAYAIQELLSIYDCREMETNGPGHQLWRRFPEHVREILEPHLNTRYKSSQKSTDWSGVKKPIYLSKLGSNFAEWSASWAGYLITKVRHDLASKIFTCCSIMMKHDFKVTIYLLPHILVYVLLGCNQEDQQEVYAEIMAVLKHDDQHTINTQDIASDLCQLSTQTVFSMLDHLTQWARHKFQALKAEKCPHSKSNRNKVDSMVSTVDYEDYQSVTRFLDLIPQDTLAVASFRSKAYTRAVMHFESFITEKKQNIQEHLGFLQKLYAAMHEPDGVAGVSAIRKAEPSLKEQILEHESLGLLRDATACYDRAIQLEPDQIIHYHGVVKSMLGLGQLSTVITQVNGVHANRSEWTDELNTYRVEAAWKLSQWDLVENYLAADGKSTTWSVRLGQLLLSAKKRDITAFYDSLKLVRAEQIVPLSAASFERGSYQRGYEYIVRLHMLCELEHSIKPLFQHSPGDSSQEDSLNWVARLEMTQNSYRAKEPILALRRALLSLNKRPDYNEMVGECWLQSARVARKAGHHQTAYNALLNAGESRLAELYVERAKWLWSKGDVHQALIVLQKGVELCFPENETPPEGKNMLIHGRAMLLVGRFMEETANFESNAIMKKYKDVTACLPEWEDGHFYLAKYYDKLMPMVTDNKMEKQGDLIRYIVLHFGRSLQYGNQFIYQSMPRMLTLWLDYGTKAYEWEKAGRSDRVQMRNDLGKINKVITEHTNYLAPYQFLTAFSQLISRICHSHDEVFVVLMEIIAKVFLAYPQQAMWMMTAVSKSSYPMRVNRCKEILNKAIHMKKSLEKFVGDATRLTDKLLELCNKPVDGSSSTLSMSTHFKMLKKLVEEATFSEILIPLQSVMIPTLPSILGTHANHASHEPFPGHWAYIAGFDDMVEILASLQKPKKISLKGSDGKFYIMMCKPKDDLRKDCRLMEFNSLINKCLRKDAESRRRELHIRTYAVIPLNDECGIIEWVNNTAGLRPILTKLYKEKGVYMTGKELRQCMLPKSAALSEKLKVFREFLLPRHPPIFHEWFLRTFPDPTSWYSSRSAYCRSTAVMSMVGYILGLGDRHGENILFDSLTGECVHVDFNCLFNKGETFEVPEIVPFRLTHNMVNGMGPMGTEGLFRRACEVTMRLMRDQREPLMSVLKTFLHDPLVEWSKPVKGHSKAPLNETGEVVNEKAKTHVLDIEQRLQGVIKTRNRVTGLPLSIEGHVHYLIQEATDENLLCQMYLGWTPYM
test-method-notes: Inhibition of ATR (unknown origin) assessed as remaining activity at 1 uM in presence of [gamma33P-ATP] by radiometric assay
measurement-label: Activity
Output should be the measured figure followed by the unit it is expressed in.

Sample records with Activity:
CC(C)NC(=O)Nc1cnc2ccc(-c3ccc(OCCCN(C)C)nc3)cc2n1 : 98%
CCCNC(=O)Nc1cnc2ccc(-c3ccc(OCCCN(C)C)nc3)cc2n1 : 99%
CN(C)CCCOc1ccc(-c2ccc3ncc(N(C)C(=O)Nc4ccccc4Cl)nc3c2)cn1 : 102%
CN(C)CCCOc1ccc(-c2ccc3ncc(NC(=O)NC4CCCC4)nc3c2)cn1 : 98%

Challenge: Request the reported Activity associated with `CN(C)CCCOc1ccc(-c2ccc3ncc(N(C)C(=O)NC4CC4)nc3c2)cn1`
Response given: 114%

Challenge: Request the reported Activity associated with `COc1ccc(NC(=O)N(C)c2cnc3ccc(-c4ccc(OCCCN(C)C)nc4)cc3n2)cc1`
Response given: 120%

Challenge: Request the reported Activity associated with `CCCCNC(=O)N(C)c1cnc2ccc(-c3ccc(OCCCN(C)C)nc3)cc2n1`
Response given: 105%

Challenge: Request the reported Activity associated with `CN(C)CCCOc1ccc(-c2ccc3ncc(N(C)C(=O)NC4CCCC4)nc3c2)cn1`
Response given: 100%
